Entry source: PubChem BioAssay AID1159580

Assay Procedure: chemical genetic growth profiling, strain panel (AID 1159580);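 further: tested at 20 µM; growth read once vehicle control cultures reached saturation at 30 °C; 1 = growth at the plate median or of vehicle wells; lower values mean less growth of the strain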
Test Settings: S. cerevisiae deletion strains, growth OD, locus YLR058C, strain SHM2 (second series), active compounds read low
Out of some 5,500 compounds screened, about 2,000 (36%) were called active. Inconclusive results (about 18%) are left out. The list shows a part of the results.
Endpoint: normalized growth

>  <Compound>
O=c1nc(-c2ccccc2)nc(-c2ccccc2)[nH]1

>  <Obs Value>
0.993 (inactive)

$$$$

Q: Given Cc1cc(C)c(C(=O)NCCNc2ccc(C(F)(F)F)cc2[N+](=O)[O-])c(C)c1 , state its recorded normalized growth.
A: 0.996 (inactive)

Q: Next entry: Cc1ccc(S(=O)(=O)Oc2ccc(CC#N)cc2)cc1
A: 0.977 (inactive)

Q: Next entry: COc1ccc(/C(C#N)=C/c2ccc(OC)c(OC)c2)cc1
A: 0.998 (inactive)

* * *

Assay Procedure: chemical genetic growth profiling, strain panel (AID 1159580);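 further: tested at 20 µM; growth read once vehicle control cultures reached saturation at 30 °C; 1 = growth at the plate median or of vehicle wells; lower values mean less growth of the strain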
Test Settings: S. cerevisiae deletion strains, growth OD, locus YPL241C, strain CIN2, active compounds read low
The whole screen tested about 5,500 compounds, of which about 2,000 (36%) were called active. Roughly 18% stayed inconclusive and do not appear here. Some of the results follow.
Endpoint: normalized growth
Answer with a bare number; do not write a unit.

>  <Molecule>
CC(C)(C)c1cc(C(C)(C)C)n(-c2ccc([N+](=O)[O-])cc2)n1

>  <Obs Value>
1.07

$$$$
>  <Molecule>
CC(=O)c1csc([N+](=O)[O-])c1

>  <Obs Value>
1.09

$$$$
>  <Molecule>
O=c1nc(-c2ccccc2)nc(-c2ccccc2)[nH]1

>  <Obs Value>
1.03

$$$$
>  <Molecule>
COc1cc2ccc(=O)oc2cc1O

>  <Obs Value>
0.997

$$$$
>  <Molecule>
CC(=O)SC1CC2=CC(=O)CC[C@]2(C)C2CC[C@@]3(C)C(CC[C@@]34CCC(=O)O4)C12 (stereo partly specified)

>  <Obs Value>
1.01

$$$$

We next turn to a different molecule, shown below.
Q: Given CC1=C2[C@](C)(C=CC1=O)C[C@H](O)[C@H]1[C@H](C)C(=O)O[C@]21C , state its recorded normalized growth.
A: 1.01

* * *

Assay Procedure: chemical genetic growth profiling, strain panel (AID 1159580);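 further: tested at 20 µM; growth read once vehicle control cultures reached saturation at 30 °C; 1 = growth at the plate median or of vehicle wells; lower values mean less growth of the strain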
Test Settings: S. cerevisiae deletion strains, growth OD, locus YJL166W, strain qcr8, active compounds read low
Among all 5,500 compounds or so, about 2,000 (36%) were called active. Not shown: some 18% with an inconclusive outcome. The list shows a part of the results.
Lab note: cut-off is 1. Strictly less in normalized growth is Condition met. Exactly 1 or more is Condition not met.

>  <Compound>
CC(C)=CCOc1cc2oc(=O)ccc2cc1O

>  <Assigned Label>
Condition met

$$$$
>  <Compound>
C[C@]12C=CC(=O)C=C1CCC1C2CC[C@]2(C)C(=O)CCC12 (some centres not stated)

>  <Assigned Label>
Condition met

$$$$
>  <Compound>
COc1c2occc2cc2ccc(=O)oc12

>  <Assigned Label>
Condition met

$$$$
>  <Compound>
COc1c(O)cc(O)cc1O

>  <Assigned Label>
Condition not met

$$$$
>  <Compound>
Cc1ncc([N+](=O)[O-])n1CCO

>  <Assigned Label>
Condition met

$$$$

# evaluate next
Q: Is 1 strictly greater than the compound's reported normalized growth? compound: COc1ccc2ccc(=O)oc2c1CC=C(C)C
A: Condition met
